Just for reference, patent US20230081426A1 is where these values come from.

Target: G12V-mutant human KRAS (amino acid residues 1-188) (Homo sapiens, UniProt P01116, G12V)
Construct: G12V-mutant human KRAS (amino acid residues 1-188) with FLAG tag was purified from E. coli; made in house; host or cells: E. coli
Assay: KRAS Binding Competition Assay (AlphaScreen; biotinylated KRpep-2d analogue), G12V
Conditions: geometric mean, read-out: KRAS GMean IC50 (uM) MUTATION: G12V
Quick reference: IC50 of the listed items.

Please review the entries below; each comes with its answer.
- CN1CCC[C@H]1COc1nc(N2[C@@H]3CC[C@H]2CNC3)c2ccc(-c3cc(O)cc4cccnc34)cc2n1 [P-0262]: 10 to 100 µM
- CN1CCC[C@H]1COc1nc(N2C[C@H]3CC[C@@H](C2)N3S(=O)(=O)N2CCOC2=O)c2ccc(-c3cc(O)cc4ccccc34)c(F)c2n1 [P-0377]: 0.0001 to 10 µM

Note to self: IC50 recorded for CN(C)CCCS(=O)(=O)N1[C@@H]2CC[C@H]1CN(c1nc(OCC34CCCN3CCC4)nc3c(F)c(-c4cc(O)cc5ccccc45)ccc13)C2 [P-0287] was 0.0001 to 10 µM

Note to self: IC50 recorded for CN1CCC[C@H]1COc1nc(N2C[C@H]3CC[C@@H](C2)N3C(=O)CC2SC(=O)NC2=O)c2ccc(-c3cc(O)cc4ccccc34)c(F)c2n1 (stereo partly shown) [P-0279] was 0.0001 to 10 µM

Note to self: IC50 recorded for CN(C)c1ccc(CCc2nc(N3C[C@H]4CC[C@@H](C3)N4)c3ccc(-c4cc(O)cc5ccccc45)cc3n2)cc1 [P-0242] was 0.0001 to 10 µM

Note to self: IC50 recorded for CN1CCC[C@H]1COc1nc(N2C[C@H]3CC[C@@H](C2)N3)c2ccc(Nc3n[nH]c4c(F)cccc34)c(F)c2n1 [P-0438] was 10 to 100 µM

Note to self: IC50 recorded for Cc1cccc2c1N(c1ncc3c(N4C[C@H]5CC[C@@H](C4)N5)nc(OC[C@@H]4CCCN4C)nc3c1F)CC(O)C2 (stereo partly shown) [P-0436] was 100 to 1000 µM

* * *

Target: G12D-mutant human KRAS (amino acid residues 1-188) (Homo sapiens, UniProt P01116, G12D)
Construct: G12D or G12C-mutant human KRAS (amino acid residues 1-188) with FLAG tag; made in house; host or cells: E. coli
Assay: KRAS Binding Disruption Assay (AlphaScreen; biotinylated KRpep-2d analogue or RAF1-RBD), G12D
Settings: KRAS G12D; geometric mean; read-out: KRAS GMean IC50 (uM) MUTATION: G12D
Quick reference: IC50 of the listed items.

Please review the entries below; each comes with its answer.
• Fc1c(-c2c[nH]c3cccc(F)c23)ccc2c(N3C[C@H]4CC[C@@H](C3)N4)nc(OCC34CCCN3CCC4)nc12 [P-0764] = 0.0001 to 10 µM
• Cc1cccc2cccc(-c3ccc4c(N5C[C@H]6CC[C@@H](C5)N6C(=O)CC#N)nc(OCC56CCCN5CCC6)nc4c3F)c12 [P-0442] = 10 to 100 µM
• Cc1nc2cc(-c3ccc4c(N5C[C@H]6CC[C@@H](C5)N6)nc(OC[C@@H]5CCCN5C)nc4c3)ccc2[nH]1 [P-0163] = 100 to 1000 µM
• CN1CCC[C@H]1COc1nc(N2C[C@H]3CC[C@@H](C2)N3C(=O)CCC(N)=O)c2ccc(-c3cc(O)cc4ccccc34)c(F)c2n1 [P-0399] = 0.0001 to 10 µM
• CN1CCC[C@H]1COc1nc(N2[C@@H]3CC[C@H]2CN(C(=O)Nc2cnc[nH]2)C3)c2ccc(-c3cc(O)cc4ccccc34)cc2n1 [P-0347] = 0.0001 to 10 µM
• CN1CCN(CCCS(=O)(=O)N2[C@@H]3CC[C@H]2CN(c2nc(OC[C@@H]4CCCN4C)nc4c(F)c(-c5cc(O)cc6ccccc56)ccc24)C3)CC1 [P-0434] = 0.0001 to 10 µM
• Oc1cc(-c2ccc3c(N4C[C@H]5CC[C@@H](C4)N5)nc(OCc4ncco4)nc3c2F)c2ccccc2c1 [P-0804] = 0.0001 to 10 µM
• CN1CCC[C@H]1COc1nc(N2C[C@H]3CC[C@@H](C2)N3)c2ccc(-c3cccc4cccc(Cl)c34)c(F)c2n1 [P-0782] = 0.0001 to 10 µM

Note to self: IC50 recorded for CN1CCC[C@H]1COc1nc(N2C[C@H]3CC[C@@H](C2)N3C(=O)Cn2ccnc2)c2ccc(-c3cc(O)cc4ccccc34)c(F)c2n1 [P-0401] was 0.0001 to 10 µM

Note to self: IC50 recorded for CC(=O)Nc1cccc(-c2ccc3c(N4C[C@H]5CC[C@@H](C4)N5)nc(OCC4CCCN4C)nc3c2)c1 (some centres unmarked) [P-0156] was 100 to 1000 µM

Note to self: IC50 recorded for Fc1c(-c2c[nH]c3cncc(Cl)c23)ccc2c(N3C[C@H]4CC[C@@H](C3)N4)nc(OCC34CCCN3CCC4)nc12 [P-0566] was 0.0001 to 10 µM

* * *

Target: G12V-mutant human KRAS (amino acid residues 1-188) (Homo sapiens, UniProt P01116, G12V)
Construct: G12V-mutant human KRAS (amino acid residues 1-188) with FLAG tag was purified from E. coli; made in house; host or cells: E. coli
Assay: KRAS Binding Competition Assay (AlphaScreen; biotinylated KRpep-2d analogue), G12V
Conditions: geometric mean, read-out: KRAS GMean IC50 (uM) MUTATION: G12V
measuredQuantity: IC50

• CN1CCN(CCNS(=O)(=O)N2[C@@H]3CC[C@H]2CN(c2nc(OCC45CCCN4CCC5)nc4c(F)c(-c5cc(O)cc6ccccc56)ccc24)C3)CC1 = 0.0001 to 10 µM
• CN1CC[C@@H](NS(=O)(=O)N2[C@@H]3CC[C@H]2CN(c2nc(OCC45CCCN4CCC5)nc4c(F)c(-c5cc(O)cc6ccccc56)ccc24)C3)C1 = 0.0001 to 10 µM

Note to self: IC50 recorded for `COc1cccc(F)c1-c1c(Cl)cc2c(N3C[C@H]4CC[C@@H](C3)N4)nc(Oc3cccc4c3CN(C)CC4)nc2c1F` was 10 to 100 µM

* * *

Quick reference: IC50 of the listed items.
Biological target: G12D-mutant human KRAS (amino acid residues 1-188) (Homo sapiens, UniProt P01116, G12D)
Construct: G12D or G12C-mutant human KRAS (amino acid residues 1-188) with FLAG tag; made in house; host or cells: E. coli
Assay: KRAS Binding Disruption Assay (AlphaScreen; biotinylated KRpep-2d analogue or RAF1-RBD), G12D
Details: KRAS G12D; geometric mean; read-out: KRAS GMean IC50 (uM) MUTATION: G12D

* O=C1CCC(=O)N1CCOc1nc(N2C[C@H]3CC[C@@H](C2)N3)c2ccc(-c3cc(O)cc4ccccc34)c(F)c2n1 | 0.0001 to 10 µM
* CN1C[C@H](F)C[C@H]1COc1nc(N2C[C@H]3CC[C@@H](C2)N3)c2ccc(-c3cc(O)cc4ccccc34)cc2n1 | 0.0001 to 10 µM
* CN1CCC2CN(c3nc(N4C[C@H]5CC[C@@H](C4)N5)c4ccc(-c5cc(O)cc6ccccc56)c(F)c4n3)CC21 (stereo partly drawn) | 0.0001 to 10 µM
* Oc1cccc(F)c1-c1ccc2c(N3C[C@H]4CC[C@@H](C3)N4)nc(OCC34CCCN3CCC4)nc2c1F | 0.0001 to 10 µM
* CN1CCC[C@H]1COc1nc(N2C[C@H]3CC[C@@H](C2)N3C(=O)Cc2cnccn2)c2ccc(-c3cc(O)cc4ccccc34)cc2n1 | 0.0001 to 10 µM

Log: G12D-mutant human KRAS (amino acid residues 1-188) (Homo sapiens, UniProt P01116, G12D), compound `CN1CCC[C@H]1COc1nc(N2[C@@H]3CC[C@H]2CN(C(=O)CNS(N)(=O)=O)C3)c2ccc(-c3cc(O)cc4ccccc34)cc2n1` , IC50 = 10 to 100 µM

Log: G12D-mutant human KRAS (amino acid residues 1-188) (Homo sapiens, UniProt P01116, G12D), compound `Cn1cncc1COc1nc(N2C[C@H]3CC[C@@H](C2)N3)c2ccc(-c3cc(O)cc4ccccc34)c(F)c2n1` , IC50 = 0.0001 to 10 µM

Log: G12D-mutant human KRAS (amino acid residues 1-188) (Homo sapiens, UniProt P01116, G12D), compound `CN1CCC[C@H]1COc1nc(N2C[C@H]3CC[C@@H](C2)N3)c2ccc(-c3cncc(Cl)c3Cl)cc2n1` , IC50 = 10 to 100 µM

Log: G12D-mutant human KRAS (amino acid residues 1-188) (Homo sapiens, UniProt P01116, G12D), compound `COc1ccc2c(-c3c(F)cc4c(N5C[C@H]6CC[C@@H](C5)N6)nc(OC[C@@H]5CCCN5C)nc4c3F)c[nH]c2c1` , IC50 = 100 to 1000 µM

Log: G12D-mutant human KRAS (amino acid residues 1-188) (Homo sapiens, UniProt P01116, G12D), compound `Cc1ccc2[nH]cc(-c3c(F)cc4c(N5C[C@H]6CC[C@@H](C5)N6)nc(OC[C@@H]5CCCN5C)nc4c3F)c2c1` , IC50 = 0.0001 to 10 µM

Log: G12D-mutant human KRAS (amino acid residues 1-188) (Homo sapiens, UniProt P01116, G12D), compound `COCCS(=O)(=O)N1[C@@H]2CC[C@H]1CN(c1nc(OCC34CCCN3CCC4)nc3cc(-c4cc(O)cc5ccccc45)ccc13)C2` , IC50 = 10 to 100 µM

Log: G12D-mutant human KRAS (amino acid residues 1-188) (Homo sapiens, UniProt P01116, G12D), compound `CN(C)c1ccc(CCc2nc(N3C[C@H]4CC[C@@H](C3)N4)c3ccc(-c4cc(O)cc5ccccc45)cc3n2)cc1` , IC50 = 0.0001 to 10 µM
